# Test system: EFM-19
# assayMethodText: Antiproliferative activity against human EFM-19 cells after 10 days
# Type: functional, cell-based
# runConditions: EFM-19, 240 h
measuredProperty: IC50 (nM)
Provide the reading as a plain figure in nM.

Q: Query (compound): Cc1cn(CCN2CCN(c3ccccc3-c3cc(C#N)cc(C(=O)NCCCN4CCCC4)c3)CC2)c2ccccc12 ; field requested: IC50
A: 2680

----------
# assayedSystem: UniProt:Q9H7B4
# Sequence (Q9H7B4 whole entry): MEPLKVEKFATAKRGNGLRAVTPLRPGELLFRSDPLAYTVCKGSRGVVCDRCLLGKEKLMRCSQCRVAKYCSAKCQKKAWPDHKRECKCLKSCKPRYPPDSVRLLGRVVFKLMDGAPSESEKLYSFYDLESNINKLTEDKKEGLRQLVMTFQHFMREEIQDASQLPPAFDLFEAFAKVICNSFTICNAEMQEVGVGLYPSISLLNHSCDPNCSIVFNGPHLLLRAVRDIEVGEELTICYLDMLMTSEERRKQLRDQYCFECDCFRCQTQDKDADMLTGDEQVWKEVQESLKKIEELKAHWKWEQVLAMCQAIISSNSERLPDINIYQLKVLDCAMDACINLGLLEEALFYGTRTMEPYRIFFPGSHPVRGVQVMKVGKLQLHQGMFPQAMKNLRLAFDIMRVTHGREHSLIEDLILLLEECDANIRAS
measuredProperty: IC50
The reply should read as a number followed by its unit.

Q: Field: IC50 (UniProt:Q9H7B4). Entry: O=C1Cc2cc(C(=O)N[C@H]3C[C@H]4CC[C@@H](C3)N4S(=O)(=O)CC3CCN(CCCC(F)(F)F)CC3)c(Cl)cc2N1
A: 5 nM

----------
# System: BT-549
# assayMethodText: Antiproliferative activity against human BT-549 cells after 10 days
# Assay type: functional, cell-based
# runConditions: BT-549, 240 h
measuredProperty: IC50 (µM)
Provide the reading as a plain figure in µM.

Q: Query (compound): Cc1cn(CCN2CCN(c3ccccc3-c3cc(C#N)cc(C(=O)NCCCN4CCCC4)c3)CC2)c2ccccc12 ; field requested: IC50
A: 3.29

----------
# Test system: MES-SA
# assayMethodText: Antiproliferative activity against human MES-SA cells after 10 days
# Format: functional, cell-based
# runConditions: 240 h
measuredProperty: pIC50
Hey, just a heads up that pIC50 is the negative log base 10 of the concentration in molar.

Q: Query (molecule): Cc1cn(CCN2CCN(c3ccccc3-c3cc(C#N)cc(C(=O)NCCCN4CCCC4)c3)CC2)c2ccccc12 ; field requested: pIC50
A: 5.64

----------
# System: SHP77
# assayMethodText: Antiproliferative activity against human SHP77 cells expressing KRAS G12V mutant
# Format: functional, cell-based
pIC50: −log10 of the molar value.
measuredProperty: pIC50

Q: Query (compound): N[C@H]1CC[C@H](S(=O)(=O)N2[C@@H]3CC[C@H]2C[C@@H](NC(=O)c2cc(C4CC4)on2)C3)CC1 ; field requested: pIC50
A: < 4.70

----------
# Tested on: ChaGo-K-1
# assayMethodText: Antiproliferative activity against human ChaGo-K-1 cells after 10 days
# Type: functional, cell-based
# runConditions: ChaGo-K-1, 240 h
measuredProperty: pIC50
Hey, just a heads up that pIC50 is the negative log base 10 of the concentration in molar.

Q: Query (molecule): Cc1cn(CCN2CCN(c3ccccc3-c3cc(C#N)cc(C(=O)NCCCN4CCCC4)c3)CC2)c2ccccc12 ; field requested: pIC50
A: 5.91

----------
# Test system: SJRH30
# assayMethodText: Antiproliferative activity against human SJRH30 cells after 10 days
# Format: functional, cell-based
# runConditions: SJRH30, 240 h
measuredProperty: pIC50
Hey, just a heads up that pIC50 is the negative log base 10 of the concentration in molar.

Q: Query (compound): Cc1cn(CCN2CCN(c3ccccc3-c3cc(C#N)cc(C(=O)NCCCN4CCCC4)c3)CC2)c2ccccc12 ; field requested: pIC50
A: 5.91

----------
# Tested on: ARH-77
# assayMethodText: Antiproliferative activity against human ARH-77 cells after 10 days
# Assay type: functional, cell-based
# runConditions: ARH-77, 240 h
measuredProperty: pIC50
Hey, just a heads up that pIC50 is the negative log base 10 of the concentration in molar.

Q: Query (molecule): Cc1cn(CCN2CCN(c3ccccc3-c3cc(C#N)cc(C(=O)NCCCN4CCCC4)c3)CC2)c2ccccc12 ; field requested: pIC50
A: 6.11
